# credit: patent US9309254B2

# system-under-test: hNaV1.7 (Homo sapiens)
# Construct: expressed in transfected cells; host or cells: HEK293
# Sequence (Q15858 whole entry): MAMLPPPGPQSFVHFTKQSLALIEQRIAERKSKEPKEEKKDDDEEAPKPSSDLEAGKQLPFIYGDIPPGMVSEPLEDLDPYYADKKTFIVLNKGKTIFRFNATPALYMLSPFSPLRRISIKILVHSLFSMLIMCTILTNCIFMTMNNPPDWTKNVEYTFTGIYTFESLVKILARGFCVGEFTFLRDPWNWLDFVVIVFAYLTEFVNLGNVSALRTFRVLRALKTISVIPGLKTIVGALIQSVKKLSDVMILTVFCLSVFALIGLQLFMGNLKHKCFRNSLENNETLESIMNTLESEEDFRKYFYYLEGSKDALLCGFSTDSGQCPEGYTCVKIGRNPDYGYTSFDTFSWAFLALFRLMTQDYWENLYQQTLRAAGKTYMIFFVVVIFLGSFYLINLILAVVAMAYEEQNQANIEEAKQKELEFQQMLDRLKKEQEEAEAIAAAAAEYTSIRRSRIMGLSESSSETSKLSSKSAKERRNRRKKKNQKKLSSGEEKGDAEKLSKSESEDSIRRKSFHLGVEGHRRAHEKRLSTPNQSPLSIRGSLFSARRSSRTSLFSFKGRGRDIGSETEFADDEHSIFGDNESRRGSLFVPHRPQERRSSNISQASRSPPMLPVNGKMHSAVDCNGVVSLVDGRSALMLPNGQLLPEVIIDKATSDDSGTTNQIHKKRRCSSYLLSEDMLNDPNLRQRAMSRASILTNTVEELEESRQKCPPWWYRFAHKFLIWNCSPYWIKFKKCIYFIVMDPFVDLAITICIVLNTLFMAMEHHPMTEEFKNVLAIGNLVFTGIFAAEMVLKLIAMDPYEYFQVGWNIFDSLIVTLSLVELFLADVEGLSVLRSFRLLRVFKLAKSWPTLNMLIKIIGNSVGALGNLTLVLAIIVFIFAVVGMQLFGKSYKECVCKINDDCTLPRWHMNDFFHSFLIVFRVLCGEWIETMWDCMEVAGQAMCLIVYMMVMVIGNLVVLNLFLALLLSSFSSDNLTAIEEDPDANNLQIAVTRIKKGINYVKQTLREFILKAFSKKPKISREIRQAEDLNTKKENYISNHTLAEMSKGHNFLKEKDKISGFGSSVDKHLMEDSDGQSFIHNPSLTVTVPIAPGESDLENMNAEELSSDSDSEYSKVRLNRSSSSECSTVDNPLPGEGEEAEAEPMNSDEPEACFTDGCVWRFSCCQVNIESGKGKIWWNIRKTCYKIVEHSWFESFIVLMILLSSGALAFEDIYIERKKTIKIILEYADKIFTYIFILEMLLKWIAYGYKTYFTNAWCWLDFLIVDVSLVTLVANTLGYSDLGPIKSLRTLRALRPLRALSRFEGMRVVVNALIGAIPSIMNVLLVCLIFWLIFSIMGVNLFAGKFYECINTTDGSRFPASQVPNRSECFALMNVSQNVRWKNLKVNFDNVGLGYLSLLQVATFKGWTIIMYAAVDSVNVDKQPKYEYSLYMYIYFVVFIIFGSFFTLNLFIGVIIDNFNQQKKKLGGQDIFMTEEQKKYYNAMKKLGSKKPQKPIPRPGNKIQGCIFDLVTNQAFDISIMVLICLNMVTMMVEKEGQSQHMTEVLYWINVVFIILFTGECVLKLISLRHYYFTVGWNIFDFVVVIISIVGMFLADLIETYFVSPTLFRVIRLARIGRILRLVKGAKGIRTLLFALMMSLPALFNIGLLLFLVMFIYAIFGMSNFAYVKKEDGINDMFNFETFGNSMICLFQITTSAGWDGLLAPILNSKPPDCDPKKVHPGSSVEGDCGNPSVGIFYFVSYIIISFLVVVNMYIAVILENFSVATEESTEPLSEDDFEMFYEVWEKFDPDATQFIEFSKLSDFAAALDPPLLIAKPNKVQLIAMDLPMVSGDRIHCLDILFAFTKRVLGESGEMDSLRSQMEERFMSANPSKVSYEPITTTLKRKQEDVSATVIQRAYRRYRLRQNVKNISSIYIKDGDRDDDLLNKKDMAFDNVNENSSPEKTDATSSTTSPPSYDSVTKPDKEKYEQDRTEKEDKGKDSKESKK
# experimental-protocol: QPatch NaV1.7 assay
# Assay type: cell-based
# measurement-context: HEK293-hNaV1.7 cells, QPatch16x; holding voltage −90 mV, where most of the channels are in a closed state; read-out: QP Nav1.7 - 90 mV pIC50 (converted)
Counter-ions that a name gives are not always drawn.
quantity: IC50 (µM)

{"compound": "Cc1cc(-c2ccc(C(F)(F)F)cc2)nc([C@@H]2CC[C@@]3(CC(C)(C)NC3=O)N2)n1 [Example 44, hydrochloride]", "system-under-test": "hNaV1.7 (Homo sapiens)", "unit-annotation": "µM", "endpoint-value": 158}

1. CCOc1ccc(F)c(-c2cc(C)nc([C@H]3CC[C@]4(CCN(C)C4=O)N3)n2)c1 [Example 9, hydrochloride]
2. Cc1cc(-c2ccc(OC(F)(F)F)cc2)nc([C@H]2CC[C@]3(CCN(C)C3=O)N2)n1 [Example 30, hydrochloride]
3. CCOc1ccc(F)c(-c2cc(C)nc([C@@H]3CC[C@]4(CCCNC4=O)N3)n2)c1 [Example 13, hydrochloride]
4. CN1CC[C@@]2(CC[C@H](c3nccc(-c4cccc(OC(F)(F)F)c4)n3)N2)C1=O [Example 18, hydrochloride]
stdin: Order the items by recorded IC50; the first position goes to the largest value. API: response body holds the labels in the requested order.
stdout: 2, 4, 1, 3

A. CN1CC[C@]2(CC[C@@H](c3nccc(-c4ccc(C(F)(F)F)cc4)n3)N2)C1=O [Example 3, hydrochloride]
B. CC(C)Oc1ccc(-c2ccnc([C@H]3CC[C@@]4(CCN(C)C4=O)N3)n2)cc1 [Example 25, hydrochloride]
C. CC(C)Oc1ccc(-c2ccnc([C@H]3CC[C@]4(CCN(C)C4=O)N3)n2)cc1 [Example 23, hydrochloride]
D. Cc1cc(-c2ccc(C(F)(F)F)cc2)nc([C@@H]2CC[C@@]3(CCNC3=O)N2)n1 [Example 41, hydrochloride]
E. CN1CC[C@@]2(CC[C@@H](c3nccc(-c4ccc(C(F)(F)F)cc4)n3)N2)C1=O [Example 2, hydrochloride]
stdin: Order the items by recorded IC50; the first position goes to the largest value. API: response body holds the labels in the requested order.
stdout: C, E, A, B, D

A. Cc1cc(-c2ccc(OC(F)(F)F)cc2)nc([C@H]2CC[C@@]3(CCN(C)C3=O)N2)n1 [Example 27, hydrochloride]
B. CC(C)Oc1ccc(-c2ccnc([C@@H]3CC[C@@]4(CCN(C)C4=O)N3)n2)cc1 [Example 26, hydrochloride]
C. CN1CC[C@@]2(CC[C@H](c3nccc(-c4ccc(C(F)(F)F)cc4)n3)N2)C1=O [Example 1, hydrochloride]
D. Cc1cc(-c2ccc(C(F)(F)F)cc2)nc([C@@H]2CC[C@@]3(CCN(C)C3=O)N2)n1 (single isomer, unassigned) [Example 22, hydrochloride]
E. Cc1cc(-c2cc(OC(F)(F)F)ccc2F)nc([C@H]2CC[C@]3(CCN(C)C3=O)N2)n1 [Example 33, hydrochloride]
stdin: Could you please order the items by IC50, going from the lowest number to the highest? API: response body holds the labels in the requested order.
stdout: E, A, C, B, D
(E: 20 µM, A: 63.1 µM, C: 126 µM, B: 631 µM, D: 7940 µM)
